- tested-target: ACE2 (Homo sapiens)
- Sequence (Q9BYF1 18-805, species assumed): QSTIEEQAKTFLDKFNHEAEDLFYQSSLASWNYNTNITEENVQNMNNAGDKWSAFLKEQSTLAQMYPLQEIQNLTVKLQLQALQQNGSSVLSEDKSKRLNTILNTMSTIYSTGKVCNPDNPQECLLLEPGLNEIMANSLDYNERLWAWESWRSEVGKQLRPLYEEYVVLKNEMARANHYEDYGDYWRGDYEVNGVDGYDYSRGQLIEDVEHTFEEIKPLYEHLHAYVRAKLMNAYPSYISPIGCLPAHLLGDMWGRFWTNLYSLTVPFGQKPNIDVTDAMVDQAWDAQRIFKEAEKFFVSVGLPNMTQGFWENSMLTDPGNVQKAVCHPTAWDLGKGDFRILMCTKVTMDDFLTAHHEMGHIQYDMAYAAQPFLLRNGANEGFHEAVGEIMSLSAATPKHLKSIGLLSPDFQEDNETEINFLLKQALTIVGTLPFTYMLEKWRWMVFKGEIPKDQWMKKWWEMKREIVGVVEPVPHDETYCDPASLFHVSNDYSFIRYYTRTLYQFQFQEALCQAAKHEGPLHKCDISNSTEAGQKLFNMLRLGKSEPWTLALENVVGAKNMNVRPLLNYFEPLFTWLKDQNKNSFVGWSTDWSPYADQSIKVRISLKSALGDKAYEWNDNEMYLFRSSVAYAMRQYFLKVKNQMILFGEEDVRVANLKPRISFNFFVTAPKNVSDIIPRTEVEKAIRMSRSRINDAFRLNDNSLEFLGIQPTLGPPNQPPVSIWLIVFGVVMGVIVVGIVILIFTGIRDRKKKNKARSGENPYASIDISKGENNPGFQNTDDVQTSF
- assay-info: ACE2 quenched fluorescence substrate (QFS) inhibition assay
- Format: biochemical
- run-conditions: read-out: ACE2 inhibition of terminally modified IHPF analogs, 10 μM (Table 3, in brackets); peptide 10 μM; 50 uM QFS, 1 M NaCl, 100 mM Tris-Cl pH 6.5, 37 °C, 1 h
Peptide text beside a SMILES is read from it.
Please provide measured inhibition at 10 µM for the entries that follow.
I only need the number, in %, no unit after it.

Test item CC[C@H](C)[C@H](N)C(=O)N[C@@H](Cc1ccc(O)cc1)C(=O)N1CCC[C@H]1C(=O)N[C@@H](Cc1ccccc1)C(=O)O [IYPF] (H-IYPF-OH) ; ACE2 (Homo sapiens); reported inhibition at 10 µM was 35

Test item CC(=O)N1CCC[C@H]1C(=O)N[C@@H](Cc1ccc(O)cc1)C(=O)N[C@H](C(=O)N[C@@H](Cc1ccccc1)C(=O)O)C(C)C [N-acetylated PYVF] (Ac-PYVF-OH) ; ACE2 (Homo sapiens); reported inhibition at 10 µM was 18

Test item CC(=O)N1CCC[C@H]1C(=O)N[C@@H](Cc1ccc(O)cc1)C(=O)N1CCC[C@H]1C(=O)N[C@@H](Cc1ccccc1)C(=O)O [N-acetylated PYPF] (Ac-PYPF-OH) ; ACE2 (Homo sapiens); reported inhibition at 10 µM was 44

Test item CC(C)[C@H](NC(=O)[C@H](Cc1ccc(O)cc1)NC(=O)[C@@H]1CCCN1)C(=O)N[C@@H](Cc1ccccc1)C(=O)O [PYVF] (H-PYVF-OH) ; ACE2 (Homo sapiens); reported inhibition at 10 µM was 51

Test item CC[C@H](C)[C@H](N)C(=O)N[C@@H](Cc1c[nH]cn1)C(=O)N1CCC[C@H]1C(=O)N[C@@H](Cc1ccccc1)C(=O)O [IHPF, Ile-His-Pro-Phe, reference compound] (H-IHPF-OH) ; ACE2 (Homo sapiens); reported inhibition at 10 µM was 22
